B1: tRNA (parent)
chain: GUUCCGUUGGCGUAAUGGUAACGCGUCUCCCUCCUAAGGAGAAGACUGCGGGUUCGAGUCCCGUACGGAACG

# Variants of: B1
# EXPERIMENT: yeast fitness, log relative to wild type (ln ratio); higher = fitter; tRNA-Arg(CCU), competitive growth, 37 C, 1 M NaCl
Collected yeast fitness (ln) values appear next to each entry.
READOUT TYPE: yeast fitness (ln)

In [3]: df
Out[3]:
                              mutant_name  value_measured
 0           G6A A43C C46U C66A A70G C71U          -0.286
 1                G1A C27U C66A A70G C71U          -0.346
 2           U2C C27U C46U C66U A69G C71U          -0.243
 3       U2G G6A C27U A43C C46U A69G A70U          -0.159
 4                    A43C A69G A70U C71U          -0.337
 5                 U2G G6U C27U C46U A70G          -0.156
 6                                G1A G6U         -0.0886
 7           G6A C27U A43C A69G A70G C71U          -0.371
 8  U2C G6U C27U A43C C46U C66U A70U C71U          -0.317
 9                           U2G G6U C46U         -0.0208
10                      U2C G6A C27U C66U          -0.217
11  G1A U2G A43C C46U C66U A69G A70U C71U          -0.341
12                  G1A U2C G6A A70G C71U         -0.0357
13      G6A A43C C46U C66U A69G A70U C71U          -0.233
14                     U2C A43C C46U A69G          -0.182
15            G1A G6U C27U A43C C46U C66A          -0.168
16       U2G G6U C27U A43C C46U A69G A70U          -0.147
17             G1A U2G G6U C46U C66A A70U          -0.234
18                G6A A43C C66U A70U C71U          -0.384
19                           U2G G6A C66U         -0.0956
20        G1A U2C G6U C27U A69G A70G C71U           -0.22
21                          G6U C27U A43C          -0.197
22      U2G C27U A43C C46U C66A A70U C71U          -0.262
23            U2C G6A C46U C66U A69G A70G         -0.0132
24   G1A U2G G6U C27U A43C C66U A70U C71U          -0.429
25                 U2C G6U C46U C66U A70G         -0.0115
26  G1A G6A C27U A43C C46U C66U A69G C71U          -0.499
27                G6A C46U C66U A69G A70G         -0.0235
28            G1A U2C C27U A43C A70U C71U          -0.175
29                    C27U A43C A69G A70U          -0.204
30            G1A U2G A43C C66U A69G A70G          -0.328
31            G1A G6U C27U C66U A70G C71U           -0.38
32                      G1A U2C A69G A70U        -0.00637
33                  G1A U2C G6U A70G C71U         -0.0526
34   G1A U2G G6A A43C C46U A69G A70U C71U          -0.262
35        G1A U2C G6A A43C C46U A69G A70G          -0.191
36   G1A U2C G6U C27U A43C A69G A70G C71U          -0.238
37       U2G G6U C27U C46U C66U A69G A70U          -0.238
38       U2C G6U C27U C66U A69G A70U C71U          -0.566
39                     U2C C27U A69G A70U          -0.175
40                    C27U A43C C66A A70U         -0.0654
41                 U2G G6A C27U C46U C66A         -0.0567
42        G1A U2C G6U C46U C66U A69G A70G          -0.183
43                 U2G G6U C46U C66U A70U         -0.0168
44            G1A U2G A43C C46U A70G C71U          -0.342
45            U2G G6U C27U A43C C46U A69G          -0.199
46            G1A G6A C27U C46U A70G C71U          -0.366
47                      G1A G6U C27U C66U           -0.29
48           G6A C27U C46U C66U A70G C71U          -0.387
49  U2G G6A A43C C46U C66A A69G A70U C71U          -0.381
50        G1A U2G G6U C27U C66U A69G C71U          -0.425
51                     G6A C46U C66A A70G          -0.117
52               C46U C66A A69G A70U C71U          -0.282
53            U2G G6U C27U A43C C66U A70U          -0.219
54           U2C C27U C46U C66A A70G C71U          -0.181
55  U2G G6A C27U A43C C46U A69G A70G C71U          -0.297
56       G1A G6A C27U A43C C66U A70U C71U          -0.381
57                          U2G A43C A70G          -0.182
58                           U2C G6U A70G         -0.0391
59        G1A U2C G6A C46U C66U A70U C71U         -0.0901
60                      G1A G6U C66U A70U          -0.154
61      G1A C27U A43C C66A A69G A70G C71U          -0.427
62                G1A C27U C46U A69G C71U          -0.047
63                     U2G C46U A69G A70U         0.00211
64  G1A U2C C27U A43C C46U C66U A69G A70G          -0.112
65                 G1A G6U C46U C66A A70G          -0.225
66             G1A U2G G6U C66A A70G C71U          -0.525
67            U2C G6U C27U A43C C66U A70G          -0.366
68           G6U C27U C46U C66A A70U C71U          -0.213
69                  G1A U2C G6U A70U C71U          -0.158
70        G1A U2C G6A C46U A69G A70G C71U         -0.0541
71            G1A G6U C46U C66A A70U C71U          -0.084
72                 U2C G6A C27U C46U A70U         -0.0585
73                               G6A A43C         -0.0714
74             G1A U2C G6U A43C C46U C71U          -0.143
75            U2C G6U C46U C66A A70U C71U          -0.121
76             G1A U2G G6U C66U A70U C71U          -0.351
77                 U2C G6U A69G A70U C71U          -0.231
78                      U2G G6A A69G C71U          -0.113
79            U2G G6A A43C C66U A70U C71U           -0.49
80                U2C A43C C46U C66U A70U         -0.0497
81           G6U C27U C46U C66U A69G C71U          -0.543
82                  G1A U2G G6A C46U A70U          -0.143
83       U2C G6U A43C C46U C66A A69G A70G         -0.0147
84          C27U C46U C66A A69G A70U C71U          -0.396
85                          G6A C46U A69G          -0.469
86            G1A G6U C66A A69G A70G C71U           -0.17
87                     U2C A43C C66U A70U         -0.0776
88                           G1A G6A A70G          -0.156
89  G1A G6A C27U A43C C46U C66U A70G C71U          -0.338
90                G1A C27U C66U A70U C71U          -0.342

Measured values drawn from the RNAGym collection of RNA variant scans (doi:10.1038/s41586-018-0170-7) for this set.
